All figures here come from patent US20240327406A1.

Molecular target: human Kv3.1 channels (hKv3.1) (Homo sapiens)
Sequence (P48547 1-501 limits assumed): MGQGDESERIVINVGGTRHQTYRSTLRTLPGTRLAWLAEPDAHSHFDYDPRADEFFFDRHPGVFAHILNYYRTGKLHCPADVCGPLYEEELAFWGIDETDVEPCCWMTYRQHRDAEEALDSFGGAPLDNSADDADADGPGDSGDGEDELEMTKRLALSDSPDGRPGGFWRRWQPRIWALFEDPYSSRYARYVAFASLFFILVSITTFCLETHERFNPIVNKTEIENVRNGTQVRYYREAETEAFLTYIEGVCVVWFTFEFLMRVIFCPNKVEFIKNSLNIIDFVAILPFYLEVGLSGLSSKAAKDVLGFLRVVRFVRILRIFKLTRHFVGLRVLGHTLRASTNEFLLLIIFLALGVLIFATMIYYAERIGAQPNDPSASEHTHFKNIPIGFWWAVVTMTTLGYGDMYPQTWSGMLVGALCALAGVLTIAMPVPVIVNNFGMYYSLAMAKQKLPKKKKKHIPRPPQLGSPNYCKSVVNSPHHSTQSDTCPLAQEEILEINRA
Assay: Measurement of Kv3 channel modulation: Kv3.1 assay (IonWorks Quattro whole-cell electrophysiology)
Format: cell-based
Settings: Table 2, Example compounds; rounded to one decimal place; some compounds with two data sets (n given in cell); read-out: Kv3.1 pEC50 (converted)
Protocol: The ability of the compounds of the invention to modulate the voltage-gated potassium channel subtypes Kv3.4/Kv3.3/Kv3.2/Kv3.1 may be determined using the following assay. […] Experiments are conducted at r.t. using IonWorks Quattro™ planar array electrophysiology technology (Molecular Devices Corp.) with PatchPlate™ PPC. […] Planar electrode hole resistances (Rp) are determined by applying a 10 mV voltage step across each well. […]
Readout type: log10(EC50) (log10 of the value in µM)
Lab note - EC50 converted to log10 from values in µM.

Examples from the recorded data:
Molecule | Subject of test | log10(EC50)
CC1(C)COc2cccc(Oc3cnc(-n4c(=O)[nH]c5cccnc54)cn3)c21 [Example 9] | human Kv3.1 channels (hKv3.1) (Homo sapiens) | 0.10
Cc1ccc(Oc2ccc(-n3c(=O)[nH]c4ccncc43)cn2)c2c1OCC21CC1 [Example 35] | human Kv3.1 channels (hKv3.1) (Homo sapiens) | 0.00
Cc1ncc2[nH]c(=O)n(-c3ccc(Oc4cccc5c4C(C)(C)CO5)nc3)c2n1 [Example 30] | human Kv3.1 channels (hKv3.1) (Homo sapiens) | -0.90
Cc1ccc(Oc2ccc(-n3c(=O)[nH]c4c(C)ccnc43)cn2)c2c1OCC21CC1 [Example 2] | human Kv3.1 channels (hKv3.1) (Homo sapiens) | -0.80
Cc1ccc(Oc2ncc(-n3c(=O)[nH]c4cccnc43)cn2)c2c1OCC21CC1 [Example 31] | human Kv3.1 channels (hKv3.1) (Homo sapiens) | -0.70

Ask | Tell me reported log10(EC50) for O=c1[nH]c2cccnc2n1-c1ccc(Oc2cccc3c2C2(CC2)CO3)cn1 [Example 6] , tested with human Kv3.1 channels (hKv3.1) (Homo sapiens).
Reply | 0.30

Ask | Write down the reported log10(EC50) of Cc1ccc(Oc2ncc(-n3c(=O)[nH]c4cccnc43)cn2)cc1OC(F)(F)F [Example 32] , test system: human Kv3.1 channels (hKv3.1) (Homo sapiens).
Reply | 0.20

Ask | # returns recorded log10(EC50) (system: human Kv3.1 channels (hKv3.1) (Homo sapiens)) for CC1(C)COc2cccc(Oc3ncc(-n4c(=O)[nH]c5cccnc54)cn3)c21 [Example 33]
Reply | -0.10

* * *

Molecular target: human Kv3.1 channels (hKv3.1) (Homo sapiens)
Experiment: Measurement of Kv3 channel modulation: Kv3.1 assay (IonWorks Quattro whole-cell electrophysiology)
Format: cell-based
Conditions: Table 1, Reference Examples; normalised to maximum effect of reference compound (50 microM)
Procedure: The ability of the compounds of the invention to modulate the voltage-gated potassium channel subtypes Kv3.4/Kv3.3/Kv3.2/Kv3.1 may be determined using the following assay. […] Experiments are conducted at r.t. using IonWorks Quattro™ planar array electrophysiology technology (Molecular Devices Corp.) with PatchPlate™ PPC. […] Planar electrode hole resistances (Rp) are determined by applying a 10 mV voltage step across each well. […]
# Kv3.1 max R % listing for each entry below
Numeric only. Scale: %

Compound | Kv3.1 max R % (%)
CC[C@@H]1CN(c2ccc(Oc3ccc(C)c4c3C3(CC3)CO4)nc2)C(=O)N1 [RE2, reference compound] | 92
Cc1ccc(Oc2ccc(N3C(=O)CC(C)(C)NC3=O)cn2)c2c1OCC21CC1 [RE5, reference compound] | 90

Ask | Find the recorded Kv3.1 max R % belonging to Cc1ccc(Oc2ccc(N3C(=O)NCC(C)(C)C3=O)cn2)c2c1OCC21CC1 [RE6, reference compound] and report it.
Reply | 111

Ask | Which Kv3.1 max R % is listed for CC[C@H]1NC(=O)N(c2ccc(Oc3ccc(C)c4c3C3(CC3)CO4)nc2)C1=O [RE1, reference compound] ?
Reply | 157

Ask | Fill in: Kv3.1 max R % of Cc1ccc(Oc2ccc(N3C(=O)NC4COCC43)cn2)c2c1OCC21CC1 (centres unmarked) [RE3, reference compound] is ___
Reply | 30

Ask | State the recorded Kv3.1 max R % for this entry: Cc1ccc(Oc2ncc(N3C(=O)NC(C)(C)C3=O)cn2)c2c1OCC21CC1 [RE4, reference compound]
Reply | 158

Ask | Query (compound): Cc1ccc(Oc2ccc(N3CCNC3=O)cn2)c2c1OCC21CC1 [RE7, reference compound] ; field requested: Kv3.1 max R %
Reply | 29

Ask | What Kv3.1 max R % value was documented for this compound, Cc1ccc(Oc2ccc(N3C(=O)CCNC3=O)cn2)c2c1OCC21CC1 [RE8, reference compound] ?
Reply | 140
